From: ChEMBL document CHEMBL1914337

Test system: HepG2
Test: cells
Settings: Homo sapiens, HepG2, 48 h
Description: Cytotoxicity against human HepG2 cells after 48 hrs by MTT assay
Would you mind telling me the reported pIC50 of each entry?
Answers are plain numbers, as −log10 of the molar value.

For orientation, consider the following solved cases.
[
  {
    "MOLECULE SMILES": "CN(C)CCNC(=O)c1ccc(/C=C2\\C(=O)Nc3ccc(F)cc32)[nH]c1=O",
    "pIC50": 4.77
  },
  {
    "MOLECULE SMILES": "CN(C)CCNC(=O)c1ccc(/C=C2\\C(=O)Nc3ncccc32)[nH]c1=O",
    "pIC50": 4.56
  },
  {
    "MOLECULE SMILES": "Cc1[nH]c(/C=C2\\C(=O)Nc3ncccc32)c(C)c1C(=O)NCCN(C)C",
    "pIC50": 4.74
  },
  {
    "MOLECULE SMILES": "CCN(CC)CCNC(=O)c1c(C)[nH]c(/C=C2\\C(=O)Nc3ccc(F)cc32)c1C",
    "pIC50": 4.81
  },
  {
    "MOLECULE SMILES": "O=C1Nc2ncccc2/C1=C/c1c[nH]c2cc(F)ccc12",
    "pIC50": 4.81
  }
]

Answer for every listed entry: what is its pIC50? The entries follow.
1. O=C1Nc2ccc(F)cc2/C1=C/c1ccc(C(=O)NCCN2CCCCC2)c(=O)[nH]1
2. O=C1Nc2ccc(F)cc2/C1=C/c1ccc(C(=O)NCCN2CCOCC2)c(=O)[nH]1

1: 4.72; 2: 4.46

Answer for every listed entry: what is its pIC50? The entries follow.
1. Cc1[nH]c(/C=C2\C(=O)Nc3ncccc32)c(C)c1C(=O)NCCN1CCCCC1
2. CCc1cccc2c(/C=C3\C(=O)Nc4ncccc43)c[nH]c12
3. CCN(CC)CCNC(=O)c1ccc(/C=C2\C(=O)Nc3cccnc32)[nH]c1=O
4. Cc1[nH]c(/C=C2\C(=O)Nc3cccnc32)c(C)c1C(=O)NCCN(C)C
5. Cc1[nH]c(/C=C2\C(=O)Nc3ncccc32)c(C)c1C(=O)N1CCN(C)CC1

1. 4.41
2. 4.98
3. 4.90
4. 4.69
5. 4.43

###

Tested on: HL-60
Assay: cells
Details: Homo sapiens, HL-60, 48 h
Description: Cytotoxicity against human HL60 cells after 48 hrs by MTT assay
RESULT TYPE: IC50 (µM)
One number for each entry, in µM.

[
  {
    "MOLECULE": "Cc1[nH]c(/C=C2\\C(=O)Nc3ccncc32)c(C)c1C(=O)NCCN(C)C",
    "UNIT": "µM",
    "IC50": 34.8
  }
]

Answer for every listed entry: what is its IC50? The entries follow.
1. CCc1cccc2c(C=C3C(=O)Nc4cccnc43)c[nH]c12 (mixture of isomers)
2. O=C1Nc2ccc(F)cc2/C1=C/c1ccc(C(=O)NCCN2CCOCC2)c(=O)[nH]1
3. Cc1[nH]c(/C=C2\C(=O)Nc3ncccc32)c(C)c1C(=O)N1CCN(C)CC1
4. Cc1[nH]c(/C=C2\C(=O)Nc3ncccc32)c(C)c1C(=O)NCCN1CCOCC1
5. CCN(CC)CCNC(=O)c1c(C)[nH]c(/C=C2\C(=O)Nc3ccncc32)c1C
6. CCN(CC)CCNC(=O)c1ccc(/C=C2\C(=O)Nc3cccnc32)[nH]c1=O

[34.2, 38.9, 40, 27.8, 35, 32.9]
